Exercise: state measured ΔTm for each of the compounds provided.
Target chain: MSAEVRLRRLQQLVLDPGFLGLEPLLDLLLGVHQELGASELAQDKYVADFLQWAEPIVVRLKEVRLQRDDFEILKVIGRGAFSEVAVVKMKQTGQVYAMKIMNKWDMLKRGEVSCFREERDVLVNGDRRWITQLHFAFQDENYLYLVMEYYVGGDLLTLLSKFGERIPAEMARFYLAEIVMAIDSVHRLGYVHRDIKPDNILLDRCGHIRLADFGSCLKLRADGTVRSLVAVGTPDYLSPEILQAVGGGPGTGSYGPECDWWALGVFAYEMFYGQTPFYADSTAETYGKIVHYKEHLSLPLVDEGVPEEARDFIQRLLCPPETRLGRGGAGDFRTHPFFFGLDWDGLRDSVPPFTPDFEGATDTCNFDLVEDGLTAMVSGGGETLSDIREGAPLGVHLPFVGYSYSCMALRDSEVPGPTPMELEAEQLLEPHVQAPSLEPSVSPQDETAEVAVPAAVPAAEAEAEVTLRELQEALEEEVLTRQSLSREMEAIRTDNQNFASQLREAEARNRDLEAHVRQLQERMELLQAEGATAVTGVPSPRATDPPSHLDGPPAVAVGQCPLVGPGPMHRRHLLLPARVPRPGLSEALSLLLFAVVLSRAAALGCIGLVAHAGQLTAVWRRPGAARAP
One number for each entry, in °C.

Bench note: what ΔTm did COc1ccc(CNc2nc(N(CCO)CCO)nc3c2ncn3C(C)C)cc1 show?
-0.1

Entry Cl.Cn1cc(C2=C(c3ccc4cc5n(c4c3)CCC(CN)C5)C(=O)NC2=O)c2ccccc21 (stereo not given) : reported ΔTm = ?
6

Go through the list and state ΔTm for each entry.
1. NC1=NC(=O)/C(=C2\CCNC(=O)c3[nH]c(Br)cc32)N1
2. O=C1C(Cl)=C(N2C(=O)CCC2=O)C(=O)c2ccccc21
3. CCCCc1c(-c2ccc(O)cc2)[nH]c2nccnc12

1: 2.1; 2: -0.9; 3: 6.1
